Compiled record: Ki values for Urokinase-type plasminogen activator (Homo sapiens) across several sources.
Measured Parameter: Ki (µM)

>  <Compound>
CC(C)c1cc(C(C)C)c(S(=O)(=O)N[C@@H](Cc2cccc(C(=N)N)c2)C(=O)N2CCN(C(=O)CCCN=C(N)N)CC2)c(C(C)C)c1

>  <Quantitative Readout>
0.26

$$$$
>  <Compound>
CC(C)C[C@@H]1NC(=O)[C@H](C(C)C)NC(=O)[C@H](CCC(N)=O)NC(=O)[C@H]([C@@H](C)O)NC(=O)[C@H](C)NC(=O)[C@@H]2CCCN2C(=O)[C@@H]2CSCc3cc(cc(c3)CSC[C@@H](C(=O)NCC(=O)O)NC1=O)CSC[C@H](NC(=O)[C@H](C)N)C(=O)N[C@@H]([C@@H](C)O)C(=O)N[C@@H](C)C(=O)N[C@@H](CCCNC(=N)N)C(=O)N[C@@H]([C@@H](C)O)C(=O)N2

>  <Quantitative Readout>
48.7

$$$$
>  <Compound>
CSc1sc(C(=N)N)cc1-c1nc(-c2cccc(NC(=O)c3ccc(F)cc3)c2)cs1

>  <Quantitative Readout>
47

$$$$

I. N=C(N)c1cccc(C[C@H](NS(=O)(=O)CCc2cccc3ccccc23)C(=O)N2CCN(C(=O)CCN=C(N)N)CC2)c1
II. COc1cccc(NC(=O)C(Oc2cccc3sc(C(=N)N)cc23)c2ccccc2)c1 (configuration not stated)
Look at I and II . Which one has the lower recorded Ki number? Let me know the label of the one you choose. II

---

Compiled record: pKi values for Urokinase-type plasminogen activator (Homo sapiens) across several sources.
pKi: −log10 of the molar value.
Measured Parameter: pKi

>  <Compound>
N=C(N)c1cc2c(OC(CNC(=O)Nc3ccccc3)c3ccccc3)cccc2s1 (centres undefined)

>  <Quantitative Readout>
6.60

$$$$
>  <Compound>
N=C(N)NCCC(=O)N1CCN(C(=O)[C@H](Cc2cccc(C(=N)N)c2)NS(=O)(=O)c2ccc3c(c2)C(=O)c2ccccc2C3=O)CC1

>  <Quantitative Readout>
4.59

$$$$
>  <Compound>
CC(C)Oc1ccc(-c2cccc(S(=O)(=O)NC(Cc3cccc(C(=N)N)c3)C(=O)N3CCC(CCN)CC3)c2)cc1 (racemic)

>  <Quantitative Readout>
5.02

$$$$

A. COc1cc(Nc2ncccn2)c2nc(N)ccc2c1
B. COc1ccc(/C=C/c2cc(Cl)cnc2N=C(N)N)cc1
C. N=C(N)c1cccc(C[C@H](NS(=O)(=O)c2cccc(NC(=O)CCN)c2)C(=O)N2CCCCC2)c1
D. COc1ccc(NC(=O)OCC(Oc2cccc3sc(C(=N)N)cc23)c2ccccc2)cc1 (centres undefined)
E. N=C(N)NCCC(=O)N1CCN(C(=O)[C@H](Cc2cccc(C(=N)N)c2)NS(=O)(=O)c2cccc3ccccc23)CC1
Hey, quick one: sort these by pKi, low to high? Form entry: ranked labels (order as requested). A, E, C, B, D

---

Compiled record: Ki values for Urokinase-type plasminogen activator (Homo sapiens, UniProt P00749) across several sources.
Measured Parameter: Ki (µM)

>  <Compound>
CC(C)c1cc(C(C)C)c(S(=O)(=O)N[C@@H](Cc2cccc(C(=N)N)c2)C(=O)N2CCC(C(=O)NCCN)CC2)c(C(C)C)c1

>  <Measured Parameter>
Ki

>  <Quantitative Readout>
1.2

$$$$

A. N=C(N)c1cc2c(OC(COC(=O)Nc3ccccc3)c3ccccc3)cccc2s1 (stereo not given)
B. N=C(N)NC(=O)c1nc(-c2cc3cc(Br)ccc3o2)c(N)nc1N
C. N=C(N)c1cccc(C[C@H](NS(=O)(=O)c2cccc(NC(=O)CCN)c2)C(=O)N2CCC(Cc3ccccc3)CC2)c1
D. COc1ccc2oc(-c3nc(C(=O)NC(=N)N)c(N)nc3N)cc2c1
E. CSc1sc(C(=N)N)cc1-c1nc(-c2ccc3c(c2)OCO3)cs1
Hey, quick one: sort these by Ki, low to high? Form entry: ranked labels (order as requested). D, A, C, B, E
(D: 0.287 µM, A: 0.44 µM, C: 2.2 µM, B: 3.65 µM, E: 91 µM)

I. COC(=O)Cn1nc(C)c(NC(=O)OCC(Oc2cccc3sc(C(=N)N)cc23)c2ccccc2)c1C (stereo not given)
II. COC(=O)Nc1ccc(-c2cc([C@H](Cc3ccccc3)NC(=O)/C=C/c3cc(Cl)ccc3-n3cnnn3)c(Cl)nn2)cc1
III. N=C(N)c1cccc(C[C@H](NS(=O)(=O)c2cccc(NC(=O)CCN)c2)C(=O)N2CCC(C(N)=O)CC2)c1
Hey, quick one: sort these by Ki, low to high? Form entry: ranked labels (order as requested). I, III, II
